- Procedure text: Pharmacokinetics of TH-302 in rats after a single oral (PO) dose
- Type: in vivo, Sprague-Dawley rats
- Reported conditions: male, Sprague-Dawley, plasma; rat, PO, 100 mg/kg, composite data, n = 3 per time point

{"Molecule": "Cn1c(COP(=O)(NCCBr)NCCBr)cnc1[N+](=O)[O-] [TH-302]", "Tmax": "15 min"}

###

- Procedure text: Single dose pharmacokinetics of TH-302 after a 30-min intravenous infusion in rats
- Assay type: in vivo
- Reported conditions: rat, plasma; female rats, 200 mg/kg, 30-min IV infusion

{"Molecule": "Cn1c(COP(=O)(NCCBr)NCCBr)cnc1[N+](=O)[O-]", "Tmax (min)": 41}

###

- Procedure text: Pharmacokinetics of TH-302 in rats after a single IV dose
- Assay type: in vivo, Sprague-Dawley rats
- Reported conditions: Sprague-Dawley, plasma, rat, 50 mg/kg, n = 3, mean ± S.D.
Metric: Tmax (min)

{"Molecule": "Cn1c(COP(=O)(NCCBr)NCCBr)cnc1[N+](=O)[O-]", "Metric": "Tmax", "Unit name": "min", "Quantitative result": 1.98}

###

- Procedure text: Single dose pharmacokinetics of TH-302 after a 30-min intravenous infusion in rats
- Type: in vivo
- Reported conditions: Sprague-Dawley, rat, plasma; female rats, 50 mg/kg, 30-min IV infusion
Metric: Cmax

{"Molecule": "Cn1c(COP(=O)(NCCBr)NCCBr)cnc1[N+](=O)[O-]", "Metric": "Cmax", "Result": "14100 ng/mL"}
